Target: Recombinant human GR (Homo sapiens)
Construct: purchased Invitrogen P2816
Assay: GR competitor assay by fluorescence polarization (GR binding ratio)
Settings: positive control 2 mM dexamethasone, a GR binding ratio of 100% or more is indicated by 100%
Catalogue of molecules with associated GR Binding ratio (%)

Query block: Give the reported GR Binding ratio (%) for COc1cc(F)ccc1-c1ccc2c(c1COc1cc(Cl)ccc1Cl)C(C)=CC(C)(C)N2 [Compound 3-85] (system: Recombinant human GR (Homo sapiens)).
Result block: 95%

Query block: Can you check C=CCc1ccccc1OCc1c(-c2cc(Cl)ccc2OC)ccc2c1C(C)=CC(C)(C)N2 [Compound 14-47] next?
Result block: ≥ 100%

Query block: Can you check COc1ccc(C(F)(F)F)cc1-c1ccc2c(c1COc1cc(F)ccc1C)C(C)=CC(C)(C)N2 [Compound 14-15] next?
Result block: 99%

Query block: Can you check COc1cc(F)c(F)cc1-c1ccc2c(c1CNc1ccccc1C)C(C)=CC(C)(C)N2 [Compound 6-59] next?
Result block: 96%

Query block: Can you check COc1ccc(Cl)cc1-c1ccc2c(c1COc1cc(F)ccc1C)C(C)=CC(C)(C)N2 [Compound 14-13] next?
Result block: ≥ 100%

***
Query block: Give the reported GR Binding ratio (%) for COc1ccc(F)cc1-c1ccc2c(c1CNc1cc(F)ccc1C)C(C)=CC(C)(C)N2 [Compound 6-78] (system: Recombinant human GR (Homo sapiens)).
Result block: ≥ 100%

Query block: Can you check COc1ccc(F)cc1-c1ccc2c(c1COc1cc(F)ccc1C)C(C)=CC(C)(C)N2 [Compound 14-43] next?
Result block: ≥ 100%

Query block: Can you check C=CCOc1ccc(-c2ccc3c(c2COc2cc(F)ccc2C)C(C)=CC(C)(C)N3)c(OC)c1 [Compound 15-7] next?
Result block: ≥ 100%

Query block: Can you check COc1cc(F)ccc1-c1ccc2c(c1COc1cc(F)ccc1C)C(C)=CC(C)(C)N2 [Compound 3-48] next?
Result block: ≥ 100%

Query block: Can you check COc1cc(F)ccc1-c1ccc2c(c1COc1cc(C)ccc1C)C(C)=CC(C)(C)N2 [Compound 3-58] next?
Result block: ≥ 100%

Query block: Can you check COc1ccccc1NCc1c(-c2cc(C)ccc2OC)ccc2c1C(C)=CC(C)(C)N2 [Compound 6-76] next?
Result block: ≥ 100%

---

Catalogue of compounds with associated GR Binding ratio (%)
Molecular target: Recombinant human GR (Homo sapiens)
Construct: purchased Invitrogen P2816
Experiment: GR competitor assay by fluorescence polarization (GR binding ratio)
Details: positive control 2 mM dexamethasone, a GR binding ratio of 100% or more is indicated by 100%

Query block: Tell me the measured GR Binding ratio (%) of COc1cc(F)ccc1-c1ccc2c(c1CNc1cc(F)ccc1C)C(C)=CC(C)(C)N2 , please.
Result block: ≥ 100%

Query block: Can you check COc1cc(F)c(F)cc1-c1ccc2c(c1COc1ccccc1C)C(C)=CC(C)(C)N2 next?
Result block: 98%

Query block: Can you check COc1ccc(F)cc1-c1ccc2c(c1COc1ccccc1CCO)C(C)=CC(C)(C)N2 next?
Result block: ≥ 100%

Query block: Can you check COc1cc(F)ccc1-c1ccc2c(c1COc1cc(C)cc(C)c1C)C(C)=CC(C)(C)N2 next?
Result block: 98%

Query block: Can you check COc1cc(F)c(F)cc1-c1ccc2c(c1COC(=O)c1cccs1)C(C)=CC(C)(C)N2 next?
Result block: ≥ 100%

***
Query block: Tell me the measured GR Binding ratio (%) of COc1ccc(C(F)(F)F)cc1-c1ccc2c(c1CNc1cc(F)ccc1C)C(C)=CC(C)(C)N2 , please.
Result block: ≥ 100%

Query block: Can you check COc1ccc(C)cc1NCc1c(-c2ccc(F)cc2OC)ccc2c1C(C)=CC(C)(C)N2 next?
Result block: ≥ 100%

Query block: Can you check COc1ccc(C)cc1OCc1c(-c2ccc(F)cc2OC)ccc2c1C(C)=CC(C)(C)N2 next?
Result block: ≥ 100%

Query block: Can you check CCc1ccc(C(=O)OCc2c(-c3ccc(F)cc3OC)ccc3c2C(C)=CC(C)(C)N3)s1 next?
Result block: ≥ 100%

Query block: Can you check COc1cc(F)ccc1-c1ccc2c(c1COC(=O)c1cc(C)cs1)C(C)=CC(C)(C)N2 next?
Result block: ≥ 100%

Query block: Can you check COc1cc(F)ccc1-c1ccc2c(c1COC(=O)c1ccc(Cl)s1)C(C)=CC(C)(C)N2 next?
Result block: ≥ 100%

Query block: Can you check COc1ccc([N+](=O)[O-])cc1OCc1c(-c2ccc(F)cc2OC)ccc2c1C(C)=CC(C)(C)N2 next?
Result block: ≥ 100%

Query block: Can you check COc1cc(F)ccc1-c1ccc2c(c1COC(=O)c1ccccc1C)C(C)=CC(C)(C)N2 next?
Result block: ≥ 100%

Query block: Can you check COc1ccc(C)cc1-c1ccc2c(c1COC(=O)c1ccc(C)s1)C(C)=CC(C)(C)N2 next?
Result block: ≥ 100%

Query block: Can you check CCOc1cc(F)ccc1-c1ccc2c(c1COC(=O)c1ccc(C)s1)C(C)=CC(C)(C)N2 next?
Result block: ≥ 100%

Query block: Can you check CCc1cccc(NCc2c(-c3ccc(F)cc3OC)ccc3c2C(C)=CC(C)(C)N3)c1 next?
Result block: 99%

---

Catalogue of compounds with associated GR Binding ratio (%)
Target: Recombinant human GR (Homo sapiens)
Construct: purchased Invitrogen P2816
Experiment: GR competitor assay by fluorescence polarization (GR binding ratio)
Details: positive control 2 mM dexamethasone, a GR binding ratio of 100% or more is indicated by 100%

Query block: Tell me the measured GR Binding ratio (%) of COc1ccc(C)cc1-c1ccc2c(c1COc1cc(F)ccc1C)C(C)=CC(C)(C)N2 , please.
Result block: ≥ 100%

***
Query block: Tell me the measured GR Binding ratio (%) of COc1ccc(Cl)cc1-c1ccc2c(c1COc1ccccc1CCO)C(C)=CC(C)(C)N2 , please.
Result block: ≥ 100%

Query block: Can you check COc1ccc(C(=O)OCc2c(-c3cc(F)ccc3OC)ccc3c2C(C)=CC(C)(C)N3)cc1 next?
Result block: ≥ 100%

Query block: Can you check CCc1ccccc1NCc1c(-c2ccc(F)cc2OC)ccc2c1C(C)=CC(C)(C)N2 next?
Result block: 96%

Query block: Can you check COc1cc(F)ccc1-c1ccc2c(c1COc1ccccc1C(C)C)C(C)=CC(C)(C)N2 next?
Result block: ≥ 100%

Query block: Can you check COc1ccccc1NCc1c(-c2ccc(F)cc2OC)ccc2c1C(C)=CC(C)(C)N2 next?
Result block: ≥ 100%

Query block: Can you check COc1cc(F)ccc1-c1ccc2c(c1COc1cc(C=O)ccc1C)C(C)=CC(C)(C)N2 next?
Result block: ≥ 100%

Query block: Can you check COc1cc(F)ccc1-c1ccc2c(c1COc1ccccc1C)C(C)=CC(C)(C)N2 next?
Result block: 99%

Query block: Can you check CCOc1ccccc1NCc1c(-c2ccc(F)cc2OC)ccc2c1C(C)=CC(C)(C)N2 next?
Result block: ≥ 100%

---

Target: Recombinant human GR (Homo sapiens)
Construct: purchased Invitrogen P2816
Assay: GR competitor assay by fluorescence polarization (GR binding ratio)
Conditions: positive control 2 mM dexamethasone, a GR binding ratio of 100% or more is indicated by 100%
Catalogue of compounds with associated GR Binding ratio (%)

Query block: Tell me the measured GR Binding ratio (%) of COc1cc(F)c(F)cc1-c1ccc2c(c1COC(=O)c1ccc(C)s1)C(C)=CC(C)(C)N2 , please.
Result block: ≥ 100%

Query block: Can you check COc1ccccc1NCc1c(-c2cc(F)c(F)cc2OC)ccc2c1C(C)=CC(C)(C)N2 next?
Result block: ≥ 100%

Query block: Can you check COc1cc(F)ccc1-c1ccc2c(c1COC(=O)c1cccs1)C(C)=CC(C)(C)N2 next?
Result block: 82%

***
Query block: Tell me the measured GR Binding ratio (%) of COc1cc(F)ccc1-c1ccc2c(c1COc1cc(Cl)ccc1C)C(C)=CC(C)(C)N2 , please.
Result block: 98%

Query block: Can you check COc1ccc(C(=O)OCc2c(-c3ccc(F)cc3OC)ccc3c2C(C)=CC(C)(C)N3)cc1 next?
Result block: ≥ 100%

Query block: Can you check COc1cc(F)ccc1-c1ccc2c(c1COc1cccc(C)c1)C(C)=CC(C)(C)N2 next?
Result block: 97%

Query block: Can you check COc1cc(F)ccc1-c1ccc2c(c1CNc1ccccc1C(C)C)C(C)=CC(C)(C)N2 next?
Result block: ≥ 100%

Query block: Can you check C=CCc1ccccc1OCc1c(-c2cc(C)ccc2OC)ccc2c1C(C)=CC(C)(C)N2 next?
Result block: 99%

---

Catalogue of compounds with associated GR Binding ratio (%)
Target: Recombinant human GR (Homo sapiens, UniProt P04150)
Construct: purchased Invitrogen P2816
Sequence (P04150 1-777): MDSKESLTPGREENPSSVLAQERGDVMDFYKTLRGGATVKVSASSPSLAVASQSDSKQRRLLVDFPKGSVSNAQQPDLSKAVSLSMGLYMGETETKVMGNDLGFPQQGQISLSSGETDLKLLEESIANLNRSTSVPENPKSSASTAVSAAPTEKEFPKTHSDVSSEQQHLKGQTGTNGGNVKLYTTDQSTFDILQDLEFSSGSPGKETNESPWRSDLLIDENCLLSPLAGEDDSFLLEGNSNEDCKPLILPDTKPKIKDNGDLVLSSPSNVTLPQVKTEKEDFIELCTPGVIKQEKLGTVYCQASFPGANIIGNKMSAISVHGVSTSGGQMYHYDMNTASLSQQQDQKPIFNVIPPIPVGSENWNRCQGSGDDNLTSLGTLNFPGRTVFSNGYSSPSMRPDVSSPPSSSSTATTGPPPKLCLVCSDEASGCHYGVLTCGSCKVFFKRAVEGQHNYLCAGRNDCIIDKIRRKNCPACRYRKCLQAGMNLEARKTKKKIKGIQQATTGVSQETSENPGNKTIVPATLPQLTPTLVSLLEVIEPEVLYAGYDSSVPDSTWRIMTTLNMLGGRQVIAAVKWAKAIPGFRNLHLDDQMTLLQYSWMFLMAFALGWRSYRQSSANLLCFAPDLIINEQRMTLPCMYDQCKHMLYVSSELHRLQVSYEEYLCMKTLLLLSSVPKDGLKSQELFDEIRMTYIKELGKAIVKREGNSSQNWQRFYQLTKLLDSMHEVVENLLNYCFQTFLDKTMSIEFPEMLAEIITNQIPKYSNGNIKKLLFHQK
Assay: GR competitor assay by fluorescence polarization (GR binding ratio)
Details: positive control 2 mM dexamethasone, a GR binding ratio of 100% or more is indicated by 100%

Query block: Give the reported GR Binding ratio (%) for COc1cc(F)ccc1-c1ccc2c(c1COc1cc([N+](=O)[O-])ccc1C)C(C)=CC(C)(C)N2 (system: Recombinant human GR (Homo sapiens, UniProt P04150)).
Result block: ≥ 100%

Query block: Can you check COc1ccc(F)cc1OCc1c(-c2ccc(F)cc2OC)ccc2c1C(C)=CC(C)(C)N2 next?
Result block: ≥ 100%

Query block: Can you check C=CCc1ccccc1OCc1c(-c2ccc(F)cc2OC)ccc2c1C(C)=CC(C)(C)N2 next?
Result block: ≥ 100%

Query block: Can you check COc1cc(F)c(F)cc1-c1ccc2c(c1COc1cc(F)ccc1C)C(C)=CC(C)(C)N2 next?
Result block: 98%

Query block: Can you check COc1ccc(O)cc1-c1ccc2c(c1COc1cc(F)ccc1C)C(C)=CC(C)(C)N2 next?
Result block: 95%

Query block: Can you check CCc1ccccc1OCc1c(-c2ccc(F)cc2OC)ccc2c1C(C)=CC(C)(C)N2 next?
Result block: ≥ 100%

Now consider the entry below.
Query block: Give the reported GR Binding ratio (%) for COc1ccc([N+](=O)[O-])cc1-c1ccc2c(c1COc1cc(F)ccc1C)C(C)=CC(C)(C)N2 (system: Recombinant human GR (Homo sapiens, UniProt P04150)).
Result block: ≥ 100%
